Molecular target: recombinant human KLK5 (Homo sapiens, UniProt Q9Y337)
Experiment: Kallikrein (KLK) 5 enzymatic assay (Boc-VPR-AMC fluorogenic substrate)
Settings: recombinant human KLK5 0.1 μg/well, Boc-VPR-AMC 100 μM, pH 7.5, room temperature, 1% DMSO; tested a minimum of three times
measured-parameter: IC50

molecule: COc1c(CN)cccc1-c1ccc2c(c1)c(COc1ccccc1CC(=O)O)nn2C(C)C [Compound 325b]
IC50: < 1000 nM
--
molecule: CC(C)n1nc(COc2ccccc2CC(=O)O)c2cc(-c3ccc4c(N)cccc4c3)ccc21 [Compound 43d]
IC50: > 10000 nM
--
molecule: Cc1cccc(OC2CC3(CCCCC3)c3ccc(-c4ccc5ccnc(N)c5c4)cc32)c1CC(=O)O (stereo not drawn) [Compound 378b]
IC50: < 1000 nM

May I ask what IC50 has been recorded for COc1c(CN)cccc1-c1cc2c(COc3ccccc3CC(=O)O)cccc2o1 [Compound 300d] ?
> 10000 nM

Now the molecule Nc1nccc2ccc(-c3ccc4c(c3)[C@H](Oc3cccc(OC(F)(F)F)c3CC(=O)O)CC4)cc12 [Compound 434c]
1000 to 10000 nM

Now the molecule COc1ccc(-c2ccc3c(c2)c(COc2ccccc2CC(=O)O)nn3C(C)C)cc1C(=N)N [Compound 211e]
1000 to 10000 nM

Now the molecule N=C(N)c1cccc(-c2ccc3c(c2)c(COc2ccccc2CC(=O)O)nn3C2CCCC2)c1 [Compound 224b]
< 1000 nM

Now the molecule Nc1nccc2ccc(-c3ccc4c(c3)c(COc3ccccc3CC(=O)O)nn4C3CCN(CCO)C3)cc12 (stereo not drawn) [Compound 299b]
< 1000 nM

Now the molecule CC1(C)Cc2ccc(-c3cccc4c(N)nccc34)cc2C1Oc1ccccc1CC(=O)O (stereo not drawn) [Compound 437f]
< 1000 nM

Now the molecule COc1ccc(CC(=O)O)c(OCc2nn(C)c3ccc(-c4ccc5ccnc(N)c5c4)cc23)c1 [Compound 71d]
< 1000 nM

Now the molecule N=C(N)c1cccc(-c2ccc3c(c2)c(COc2ccccc2CC(=O)O)nn3-c2ccccc2)c1 [Compound 203c]
< 1000 nM

Now the molecule CC(C)CCN1CC(Cn2nc(COc3ccccc3CC(=O)O)c3cc(-c4cccc5c(N)nccc45)ccc32)C1 [Compound 308b]
< 1000 nM

Now the molecule Cc1cccc(OC2CC3(CCOCC3)c3ccc(-c4ccc5ccnc(N)c5c4)cc32)c1CC(=O)O (stereo not drawn) [Compound 352c]
< 1000 nM

Now the molecule CC(C)OC(=O)N1CC[C@@H](n2nc(COc3ccccc3CC(=O)O)c3cc(-c4ccc5ccnc(N)c5c4)ccc32)C1 [Compound 362c]
< 1000 nM

Now the molecule Nc1nccc2ccc(-c3ccc4c(c3)[C@H](Oc3ccccc3CC(=O)O)CC43CCN(CC(=O)O)CC3)cc12 [Compound 414c]
< 1000 nM

====

Each entry below carries its reported pIC50.
Target: recombinant human KLK5 (Homo sapiens)
Sequence (Q9Y337 23-293): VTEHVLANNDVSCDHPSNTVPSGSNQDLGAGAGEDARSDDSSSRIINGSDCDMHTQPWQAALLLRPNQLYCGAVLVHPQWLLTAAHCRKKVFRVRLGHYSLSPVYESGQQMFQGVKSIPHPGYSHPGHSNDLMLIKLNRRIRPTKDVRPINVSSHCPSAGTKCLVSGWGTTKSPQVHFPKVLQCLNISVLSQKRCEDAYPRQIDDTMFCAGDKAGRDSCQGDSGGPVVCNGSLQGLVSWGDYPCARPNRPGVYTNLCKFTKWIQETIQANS
Experiment: Kallikrein (KLK) 5 enzymatic assay (Boc-VPR-AMC fluorogenic substrate)
Details: recombinant human KLK5 0.1 μg/well, Boc-VPR-AMC 100 μM, pH 7.5, room temperature, 1% DMSO; tested a minimum of three times
pIC50: −log10 of the molar value.

Take a look at these entries with their results.
compound: CC(C)n1nc(C(=O)Nc2ccccc2C(=O)O)c2cc(-c3ccc(C(=N)N)cc3)ccc21 [Compound 3b]
pIC50: < 5.00

compound: CCOC(=O)N1CC[C@H](n2nc(COc3ccccc3CC(=O)O)c3cc(-c4cccc5c(N)nccc45)ccc32)C1 [Compound 345e]
pIC50: > 6.00

compound: Nc1nccc2ccc(-c3ccc4nn(C5CCC5)c(COc5cc(F)ccc5CC(=O)O)c4c3)cc12 [Compound 149d]
pIC50: 5.00 to 6.00

compound: Nc1nccc2c(-c3cc(-c4ccccc4)c4c(c3)C(Oc3ccccc3CC(=O)O)CC4)cccc12 (centres unmarked) [Compound 256f]
pIC50: 5.00 to 6.00

compound: Nc1nccc2c(-c3ccc4c(c3)c(COc3ccccc3CC(=O)O)nn4C3CC3)cccc12 [Compound 65b]
pIC50: > 6.00

Attention now shifts to the item below.
May I ask what pIC50 has been recorded for COC(=O)N1CCC2(CC1)C[C@H](Oc1ccccc1CC(=O)O)c1cc(-c3cccc4c(N)nccc34)ccc12 [Compound 396d] ?
> 6.00

====

Biological target: recombinant human KLK5 (Homo sapiens)
Experiment: Kallikrein (KLK) 5 enzymatic assay (Boc-VPR-AMC fluorogenic substrate)
Settings: recombinant human KLK5 0.1 μg/well, Boc-VPR-AMC 100 μM, pH 7.5, room temperature, 1% DMSO; tested a minimum of three times
pIC50: −log10 of the molar value.
Each entry below carries its reported pIC50.

Take a look at these entries with their results.
molecule: CCS(=O)(=O)N1CCC(n2nc(COc3ccccc3CC(=O)O)c3cc(-c4ccc5ccnc(N)c5c4)ccc32)C1 (stereo not drawn) [Compound 312c]
assay-target: recombinant human KLK5 (Homo sapiens)
pIC50: > 6.00

molecule: COc1cccc(OCc2nn(C3CCC3)c3ccc(-c4ccc5ccnc(N)c5c4)cc23)c1CC(=O)O [Compound 172d]
assay-target: recombinant human KLK5 (Homo sapiens)
pIC50: 5.00 to 6.00

molecule: Nc1nccc2c(-c3ccc4c(c3)c(COc3ccccc3CC(=O)O)nn4-c3ccccc3)cccc12 [Compound 202b]
assay-target: recombinant human KLK5 (Homo sapiens)
pIC50: > 6.00

molecule: COC(=O)N1CCC2(CC1)CC(Oc1ccccc1CC(=O)O)c1cc(-c3ccc4ccnc(N)c4c3)ccc12 (stereo not drawn) [Compound 370c]
assay-target: recombinant human KLK5 (Homo sapiens)
pIC50: > 6.00

molecule: N#Cc1ccc(CC(=O)O)c(O[C@@H]2CCc3ccc(-c4ccc5ccnc(N)c5c4)cc32)c1 [Compound 423c]
assay-target: recombinant human KLK5 (Homo sapiens)
pIC50: > 6.00

molecule: Nc1nccc2ccc(-c3ccc4c(c3)c(COc3ccccc3CC(=O)O)nn4C3CN(CCO)C3)cc12 [Compound 148b]
assay-target: recombinant human KLK5 (Homo sapiens)
pIC50: > 6.00

molecule: CC(C)COC(=O)N1CC[C@H](n2nc(COc3ccccc3CC(=O)O)c3cc(-c4ccc5ccnc(N)c5c4)ccc32)C1 [Compound 360c]
assay-target: recombinant human KLK5 (Homo sapiens)
pIC50: > 6.00

molecule: CC(C)Oc1c(C(=N)N)cccc1-c1ccc2c(c1)c(COc1ccccc1CC(=O)O)nn2C(C)C [Compound 272f]
assay-target: recombinant human KLK5 (Homo sapiens)
pIC50: 5.00 to 6.00

molecule: Nc1nccc2ccc(-c3ccc4c(c3)C(Oc3ccccc3CC(=O)O)CCC4)cc12 (stereo not drawn) [Compound 204d]
assay-target: recombinant human KLK5 (Homo sapiens)
pIC50: 5.00 to 6.00

molecule: N#Cc1cccc(OCc2nn(C3CCOC3)c3ccc(-c4cccc5c(N)nccc45)cc23)c1CC(=O)O (stereo not drawn) [Compound 293b]
assay-target: recombinant human KLK5 (Homo sapiens)
pIC50: > 6.00

May I ask what pIC50 has been recorded for COc1ccc(OCc2nn(C3CCC3)c3ccc(-c4ccc5ccnc(N)c5c4)cc23)c(CC(=O)O)c1 [Compound 170c] ?
> 6.00

Now the molecule Nc1nccc2c(-c3ccc4c(c3)C(Oc3ccccc3CC(=O)O)c3ccccc3-4)cccc12 (stereo not drawn) [Compound 210b]
> 6.00

====

Molecular target: recombinant human KLK5 (Homo sapiens, UniProt Q9Y337)
Test: Kallikrein (KLK) 5 enzymatic assay (Boc-VPR-AMC fluorogenic substrate)
Conditions: recombinant human KLK5 0.1 μg/well, Boc-VPR-AMC 100 μM, pH 7.5, room temperature, 1% DMSO; tested a minimum of three times
Each entry below carries its reported IC50.

Take a look at these entries with their results.
compound: CC(C)n1nc(COc2ccccc2CC(=O)O)c2cc(-c3ccc4[nH]c(N)nc4c3)ccc21 [Compound 26c]
IC50: 1000 to 10000 nM
//
compound: Cc1cc2c(-c3ccc4c(c3)c(COc3ccccc3CC(=O)O)nn4C(C)C)cccc2c(N)n1 [Compound 220d]
IC50: 1000 to 10000 nM
//
compound: Nc1nccc2c(-c3ccc4c(c3)c(C#Cc3ccccc3CC(=O)O)cn4C3CCOC3)cccc12 (stereo not shown) [Compound 301f]
IC50: < 1000 nM

Attention now shifts to the item below.
May I ask what IC50 has been recorded for Cc1cccc(OCc2nn(C3CCCC3)c3ccc(-c4ccc5ccnc(N)c5c4)cc23)c1CC(=O)O [Compound 240b] ?
< 1000 nM
